Settings: 303.15 K; 101.33 kPa; Liquid
measured_property: mass density (kg/m3)
# value in kg/m3; strip the unit string

Solved entries:
>>> obs_value("CCCCOC(C)=O [butyl ethanoate]")
871.27
>>> obs_value("CC(=O)OCCC(C)C [3-methylbutyl ethanoate]")
861.05
>>> obs_value("COC(C)=O [methyl ethanoate]")
919.7
>>> obs_value("CC(O)CO (stereo not drawn) [1,2-propanediol]")
1029.02
>>> obs_value("OCCOCCOCCO [triethylene glycol]")
1115.88

Prompt line: Requested field: mass density. Item: CCOC(C)=O [ethyl acetate]
Response line: 888.48

Prompt line: Requested field: mass density. Item: OCCOCCO [diethylene glycol]
Response line: 1109.56

Prompt line: Requested field: mass density. Item: OCCO [1,2-ethanediol]
Response line: 1106.63

###

Conditions: 313.15 K; 101.33 kPa; Liquid
± gives the expanded uncertainty stated by the source.
measured_property: mass density

Solved entries:
>>> obs_value("COC(C)=O [methyl ethanoate]")
"908.33 ± 0.84 kg/m3"
>>> obs_value("OCCO [1,2-ethanediol]")
"1099.64 ± 0.29 kg/m3"
>>> obs_value("CC(=O)OCCC(C)C [3-methylbutyl ethanoate]")
"852.95 ± 1 kg/m3"
>>> obs_value("CCOC(C)=O [ethyl acetate]")
"875.97 ± 0.94 kg/m3"
>>> obs_value("OCCOCCOCCO [triethylene glycol]")
"1109.53 ± 0.6 kg/m3"
>>> obs_value("CCCCOC(C)=O [butyl ethanoate]")
"860.48 ± 1 kg/m3"

Prompt line: Requested field: mass density. Item: CC(O)CO (stereo not drawn) [1,2-propanediol]
Response line: 1021.53 ± 0.35 kg/m3

Prompt line: Requested field: mass density. Item: OCCOCCO [diethylene glycol]
Response line: 1103.02 ± 0.3 kg/m3

###

Conditions: 298.15 K; 101.33 kPa; Liquid
Reported speed of sound is given for each of the following molecules.
# value in m/s; strip the unit string

Solved entries:
>>> obs_value("CC(O)CO (stereo not drawn)")
1492
>>> obs_value("OCCOCCO")
1580
>>> obs_value("CCOC(C)=O [ethyl acetate]")
1138
>>> obs_value("OCCO")
1662

Prompt line: Requested field: speed of sound. Item: COC(C)=O [methyl ethanoate]
Response line: 1150

Prompt line: Requested field: speed of sound. Item: CC(=O)OCCC(C)C [3-methylbutyl ethanoate]
Response line: 1195

Prompt line: Requested field: speed of sound. Item: OCCOCCOCCO
Response line: 1612

Prompt line: Requested field: speed of sound. Item: CCCCOC(C)=O [butyl ethanoate]
Response line: 1190

###

Settings: 308.15 K; 101.33 kPa; Liquid
measured_property: viscosity (mPa·s)
# value in mPa·s; strip the unit string

Solved entries:
>>> obs_value("OCCOCCO [diethylene glycol]")
16.97
>>> obs_value("OCCOCCOCCO [triethylene glycol]")
21.31
>>> obs_value("CCCCOC(C)=O [butyl ethanoate]")
0.594
>>> obs_value("OCCO [1,2-ethanediol]")
10.48
>>> obs_value("CC(O)CO (stereo not drawn) [1,2-propanediol]")
24.24

Prompt line: Requested field: viscosity. Item: CCOC(C)=O [ethyl acetate]
Response line: 0.387

Prompt line: Requested field: viscosity. Item: CC(=O)OCCC(C)C [3-methylbutyl ethanoate]
Response line: 0.747

Prompt line: Requested field: viscosity. Item: COC(C)=O [methyl ethanoate]
Response line: 0.351
